Molecular target: T1, human GPC3 (human, UniProt P51654 25-563)
T1 construct: range 25-563; soluble analyte; also called soluble human GPC3; glypican 3
T1 sequence (P51654 25-563 limits assumed): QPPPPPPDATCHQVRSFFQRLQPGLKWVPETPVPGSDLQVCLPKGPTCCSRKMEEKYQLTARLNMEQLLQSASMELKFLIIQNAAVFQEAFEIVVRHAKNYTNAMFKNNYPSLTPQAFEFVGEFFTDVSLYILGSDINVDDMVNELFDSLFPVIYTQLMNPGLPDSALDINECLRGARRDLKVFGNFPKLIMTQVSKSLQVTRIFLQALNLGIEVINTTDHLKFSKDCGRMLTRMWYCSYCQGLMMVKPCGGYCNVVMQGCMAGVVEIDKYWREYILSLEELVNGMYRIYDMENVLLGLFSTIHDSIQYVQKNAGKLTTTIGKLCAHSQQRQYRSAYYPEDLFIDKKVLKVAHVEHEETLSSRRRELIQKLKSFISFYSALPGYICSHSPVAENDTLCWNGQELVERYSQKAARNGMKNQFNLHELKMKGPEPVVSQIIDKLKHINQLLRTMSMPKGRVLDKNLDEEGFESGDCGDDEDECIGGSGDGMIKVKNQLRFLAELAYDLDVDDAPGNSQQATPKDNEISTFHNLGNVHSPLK
Experiment: SPR
measurement name: Kd
// unit must come after the numeric part

Reference set, count: 2
binder	Kd
GCH065-G1dh/none-Hi-Kn010G3/L0011-k0 (antibody, V domains shown, one-arm) VH: QVQLVQSGAEVKKPGASVTVSCKASGYTFTDYEMHWIRQPPGEGLEWIGAIDGPTPDTAYSEKFKGRVTLTADKSTSTAYMELSSLTSEDTAVYYCTRFYSYTYWGQGTLVTVSS VL: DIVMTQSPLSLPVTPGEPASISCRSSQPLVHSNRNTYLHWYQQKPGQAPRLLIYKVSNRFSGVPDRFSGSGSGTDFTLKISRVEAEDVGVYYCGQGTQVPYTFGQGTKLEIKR	0.884 nM
GCH066-G1dh/none-Hi-Kn010G3/L0000-k0 (antibody, V domains shown, one-arm) VH: QVQLVQSGAEVKKPGASVTVSCKASGYTFTDYEMHWIRQPPGEGLEWIGAIDGWTPDTAYSEKFKGRVTLTADKSTSTAYMELSSLTSEDTAVYYCTRFYSYTYWGQGTLVTVSS VL: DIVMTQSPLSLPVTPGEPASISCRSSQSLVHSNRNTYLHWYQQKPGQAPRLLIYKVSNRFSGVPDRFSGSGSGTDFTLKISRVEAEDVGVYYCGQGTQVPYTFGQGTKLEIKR	4.29 nM

Recorded Kd (binder H0610-G1dh/none-Hi-Kn010G3/L0187-k0 (antibody, V domains shown, one-arm) VH: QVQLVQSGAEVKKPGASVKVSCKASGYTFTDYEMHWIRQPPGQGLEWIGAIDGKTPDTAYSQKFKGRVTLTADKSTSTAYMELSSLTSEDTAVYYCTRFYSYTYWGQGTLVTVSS VL: DIVMTQSPLSLPVTPGEPASISCRSSQSLVHSNRNTYLHWYQQKPGQAPRLLIYKVSNRFSGVPDRFSGSGSGTDFTLKISRVEAEDVGVYYCGQGTQYPYTFGQGTKLEIK ): 4.92 nM

Recorded Kd (binder H0610-G1dh/none-Hi-Kn010G3/L0151-k0 (antibody, V domains shown, one-arm) VH: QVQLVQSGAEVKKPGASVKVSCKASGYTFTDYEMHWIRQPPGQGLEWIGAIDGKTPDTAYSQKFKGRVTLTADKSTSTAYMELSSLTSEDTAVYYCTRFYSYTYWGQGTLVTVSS VL: DIVMTQSPLSLPVTPGEPASISCRSSQSLVHSNRNTYLHWYQQKPGQAPRLLIYKVSNRFSGVPDRFSGSGSGTDFTLKISRVEAEDVGVYYCEQGTQVPYTFGQGTKLEIK ): 1.25 nM

Recorded Kd (binder H0610-G1dh/none-Hi-Kn010G3/L0238-k0 (antibody, V domains shown, one-arm) VH: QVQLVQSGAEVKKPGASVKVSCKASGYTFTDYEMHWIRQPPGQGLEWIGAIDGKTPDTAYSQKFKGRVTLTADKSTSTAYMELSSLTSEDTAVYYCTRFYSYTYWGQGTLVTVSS VL: DIVMTQSPLSLPVTPGEPASISCRSSEPPVHSNRNTYLHWYQQKPGQAPRLLIYKVSNRFSGVPDRFSGSGSGTDFTLKISRVEAEDVGVYYCYQGTQVPYTFGQGTKLEIK ): 0.637 nM
